- system: Regulator of G-protein signaling 16 (Homo sapiens) (UniProt O15492)
- Sequence (O15492 whole entry, looked up): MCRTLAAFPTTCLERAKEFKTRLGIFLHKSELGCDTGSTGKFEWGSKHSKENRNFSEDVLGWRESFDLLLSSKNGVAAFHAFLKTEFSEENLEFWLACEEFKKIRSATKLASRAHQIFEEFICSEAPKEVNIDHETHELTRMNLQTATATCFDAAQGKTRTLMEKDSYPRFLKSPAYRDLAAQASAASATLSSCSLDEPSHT
- testMethodNotes: RGS16-Galphao binding modulators, SAR follow-up, biochemical, multiplexed bead flow cytometry, SAR compounds (AID 2298)
- setupConditions: bead-based flow cytometry, AF488-Galphao binding to RGS16; measured here: Ki derived from EC50, inhibitors
pKi: −log10 of the molar value.

compound | system | pKi
CC(NC(=O)c1sc2cc([N+](=O)[O-])ccc2c1Cl)C(C)(C)C (stereo not drawn) | Regulator of G-protein signaling 16 (Homo sapiens) (UniProt O15492) | 6.77
Cc1[nH]n(-c2ccccc2)c(=S)c1C=NCCCN=Cc1c(C)[nH]n(-c2ccccc2)c1=S | Regulator of G-protein signaling 16 (Homo sapiens) (UniProt O15492) | 6.48
CC1(C)OC(=O)C(=Cc2ccc(-c3ccc(S(N)(=O)=O)cc3)o2)C(=O)O1 | Regulator of G-protein signaling 16 (Homo sapiens) (UniProt O15492) | 5.55
